% Blocking at 7.4nM mAb for assorted binders
# ASSAYED TARGET: T1, extracellular domain (ECD) of recombinant human Sortilin with a C-terminal HIS tag (ECD-huSortilin-HIS) (human, UniProt Q99523 78-755)
# T1 construct: Bought (R&D Systems); also called human sortilin-ECD; not shown: C-terminal HIS tag
# T1 sequence: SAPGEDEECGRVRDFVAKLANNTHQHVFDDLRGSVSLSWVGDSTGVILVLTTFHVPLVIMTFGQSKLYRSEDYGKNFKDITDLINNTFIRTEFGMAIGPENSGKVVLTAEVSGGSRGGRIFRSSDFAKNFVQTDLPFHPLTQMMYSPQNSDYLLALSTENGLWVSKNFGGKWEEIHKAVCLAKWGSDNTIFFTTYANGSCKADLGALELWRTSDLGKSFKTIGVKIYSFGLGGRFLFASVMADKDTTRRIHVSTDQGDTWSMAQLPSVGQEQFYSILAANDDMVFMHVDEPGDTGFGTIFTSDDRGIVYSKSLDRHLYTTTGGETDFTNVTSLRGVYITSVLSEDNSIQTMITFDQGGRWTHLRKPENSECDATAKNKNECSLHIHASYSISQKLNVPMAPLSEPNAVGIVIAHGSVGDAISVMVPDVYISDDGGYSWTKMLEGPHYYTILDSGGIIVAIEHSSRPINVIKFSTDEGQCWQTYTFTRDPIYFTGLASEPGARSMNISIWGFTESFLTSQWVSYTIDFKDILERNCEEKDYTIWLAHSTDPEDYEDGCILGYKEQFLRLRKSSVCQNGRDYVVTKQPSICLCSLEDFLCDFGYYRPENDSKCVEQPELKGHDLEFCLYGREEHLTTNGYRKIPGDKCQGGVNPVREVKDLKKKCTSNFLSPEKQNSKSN
# EXPERIMENTAL DETAILS: blocking ELISA, coated ECD-huSortilin-HIS; blocked ligand huPGRN-Biotin
Entry rule: numbers only, all in %.

mouse monoclonal antibody 8H24 (antibody, mouse IgG2c, V domains shown, mouse IgG2c, kappa; also called mu8H24; m8H24) VH: QAYLQQSGTELVRPGASVKMSCKASGYTFTSYSMHWVKQTPRQGLEWIGAIYPGNDATSYNQKFKGKATLTVDKSSSTAYMQLSSLTSEDSAVYFCAREGYYGSSFEAWFASWGQGTLVTVSA VL: DVLMTQTPLSLPVSLGDQASISCRSSQSIVHSNGNTYLEWYLQKPGQSPKLLIYKVSNRFSGVPDRFSGSGSGTDFTLKISRVEAEDLGVYYCFQGSHVLPTFGGGTKLEIK; 89

Data request: # % Blocking at 7.4nM mAb lookup, item mouse monoclonal antibody 5M13 (antibody, mouse IgG1, V domains shown, mouse IgG1, kappa) VH: DVQLQESGPGLVKPSQSLSLTCTVTGYSITSDYAWNWIRQFPGNKLEWMGYISSSGSTSYNPSLKSRISVTRDTSKNQFFLQLNFVTAEDTATYYCAFVTTTMDYWGQGTSVTVSS VL: DVVMTQTPLSLPVSLGDQASISCRSSQSLVHSNGNTYLHWYLQKPGQSPKLLIYTVSNRFSGVPDRFSGSGSGTDFTLKISRVEAEDLGVYFCSQSTHVPFTFGSGTKLEIK
Data returned: 27
